System: MS2 coat protein
Experiment: apparent Kd, MS2 coat protein; higher = weaker binding; RNA-MaP array
Conditions: designed as: ON switch for flavin mononucleotide; no ligand
Readout Type: apparent Kd
Field: value (include unit after the number)

Below, 8 sequences whose answers are already recorded.
Seq String	apparent Kd
CGCAGGGCCCAGAAGGGCAUAAUGUUAGACUACAUGAGGAUCACCCAUGUGCCACGAGAGGUUGUGCAGGAUAUGGAUCUAUUG	56.7 nM
AAAUGCAUUCGAGGAUAUGUCAUGAUGUUGUAAACAGAAGGCGAGGCAUCGACAUGAGGAUCACCCAUGUGCACAGGUAAAAGU	37.6 nM
CCGCACAUGAGGAUCACCCAUGUUCCCAGUCAACUAGGAGCCAAGGAUAUCGUUCGCGAGUGCACCGAGAAGGUGGCCCAUGAA	193 nM
AGAUCUAACGCAGGAUAUAGUGCGGGAAAACCUAAACAUGAGGAUCACCCAUGUCUGCUACAAAGCUAGAAGGGCGUUCGGGAA	46.4 nM
AGAACCAUAGUAGGAUAUGAGACGUUAUUGGUAACAGAAGGACUAGCUGUAACAUGAGGAUCACCCAUGUGGGCCGGACAGAGG	14.1 nM
AGCAUGACAGCAGGAUAUGCGAACAGAAAUAGUGCAGAAGGGCUUUACACAUGAGGAUCACCCAUGUCCGCAAGGAUGCGUAUG	41.1 nM
UACAUGAGGAUCACCCAUGUGGUCAGGUUAUCCCGGACGGGAAGAAGGAUAAGAGAGUAACAUUUAUAGGAUAUUCGCCUCAUU	57.8 nM
GUCGGAGUGGAGAAGGCGCCAACGUAAGCGCGGCGAGGAUAUCCCUACCCUACAUGAGGAUCACCCAUGUCGACGAGAGUAUCG	11.3 nM

response.value for CUUCGGCCCAGGGAGAUGACCACAUGAGGAUCACCCAUGUACAGAAGGAGUAUCGGUAGGCCAUACUAGGAUAUGUGAAUAGAC (field: apparent Kd) = 25.8 nM

====

System: MS2 coat protein
Assay: apparent Kd, MS2 coat protein; higher = weaker binding; RNA-MaP array; FMN 200 µM where present
Settings: designed as: OFF switch for flavin mononucleotide; no ligand
Readout Type: apparent Kd

Seq String	Readout Type	Result
GAAAACAUAGGAUAUACAUGAGGAUCACCCAUGUUAAAAUAAAGAAAGGGAGAAAUAAGUAGAAGGAUGAAAAA	apparent Kd	33.8 nM
CUCGAGUUAGGAUAUCGAACGUAACAAGCGGAAACUCCCGCCGAGAAGGAACAUGAGGAUCACCCAUGUGAAAC	apparent Kd	14.9 nM
GAGGAGUCAGGAUAUCGGGAAAGGUUGAGGAAGAGAAGAAGCGAGAAGGGACAUGAGGAUCACCCAUGUAGAAG	apparent Kd	52.4 nM
CGGUACUGAGGAUAUACAUGAGGAUCACCCAUGUGUUCUAGCUAGCGUACUGGCAUUUGUAGAAGGCGGUGCUG	apparent Kd	15 nM
CGUCGAAAGGCGGGUCCAUCACCACAUGAGGAUCACCCAUGUAAGGAUAUCGGACUCAGAAAGAGCGAGAAGGUACAUAGUUAA	apparent Kd	6.01 nM
GGUGGUCUUGUGAGGAUAUGGUUGGAUGCAUAUGAUCAGAAGGCACAUGAGGAUCACCCAUGUGGAAUACCACU	apparent Kd	37.3 nM

Now let's try a different one.
response.value for GUGCAGGUAGGAUAUACGUGAGAGCCUUGUGGGCGUCUGGUACAUGAGGAUCACCCAUGUAGAAGGACCGGGCU (field: apparent Kd) = 21.3 nM

These entries and their values trace back to the EternaBench riboswitch data.
